Entry source: patent US11230543B2

Test system: Pseudomonas aeruginosa expressing AmpC (CL5701)
Experiment: Antibiotic activity: growth inhibitory concentration (OD600), Pseudomonas aeruginosa CL5701
Format: cell-based
Settings: lowest concentration inhibiting 95% of bacterial growth; in the presence of β lactamase inhibitor Relebactam 4 μg/mL; 35±2° C. for 22 hours; tested range 100 μM to 0.098 μM
For each entry below, report its PA_CL5701 MITC95 value.
Use µM as the unit, but write only the number.

The compound listed as Cc1c(-c2ccc(OC[C@H](O/N=C(\C(=O)N[C@@H]3C(=O)N(OS(=O)(=O)O)C3(C)C)c3csc(N)n3)C(=O)O)cc2)c(C)[n+](C)n1CCCN.O=C([O-])C(F)(F)F [Example 20] has a reported PA_CL5701 MITC95 of 6.25

The measured PA_CL5701 MITC95 associated with CC1(C)[C@H](NC(=O)/C(=N\O[C@@H](COc2ccc(-c3cn(CCCN)[n+](C[C@@H]4CCNC4)c3)cc2)C(=O)O)c2csc(N)n2)C(=O)N1OS(=O)(=O)[O-] [Example 53] reads 1.563

PA_CL5701 MITC95 in this record for C[C@H]1[C@H](NC(=O)/C(=N\O[C@@H](COc2ccc(-c3cn(CCCN)[n+](C)c3)cc2)C(=O)O)c2csc(N)n2)C(=O)N1S(=O)(=O)[O-] [Example 7] : 12.5

PA_CL5701 MITC95 measured on C[n+]1cc(-c2ccc(OC[C@H](O/N=C(\C(=O)N[C@@H]3C(=O)N(OS(=O)(=O)[O-])C3(C)C)c3csc(N)n3)C(=O)O)cc2)ccc1NCC1(N)CC1 [Example 74] = 6.25

Form field PA_CL5701 MITC95, entry CC1(C)[C@H](NC(=O)/C(=N\O[C@@H](COc2cnc(-n3cc[n+](CCCN)c3)nc2)C(=O)O)c2csc(N)n2)C(=O)N1OS(=O)(=O)[O-] [Example 111] : 50

* * *

Test system: Pseudomonas aeruginosa expressing AmpC (CL5701)
Experiment: Antibiotic activity: growth inhibitory concentration (OD600), Pseudomonas aeruginosa CL5701
Type: cell-based
Settings: lowest concentration inhibiting 95% of bacterial growth; in the presence of β lactamase inhibitor Relebactam 4 μg/mL; 35±2° C. for 22 hours; tested range 100 μM to 0.098 μM
REPORTED PROPERTY: PA_CL5701 MITC95 (µM)
Report as a plain number; the unit µM is understood.

# PA_CL5701 MITC95 of CC1(C)[C@H](NC(=O)/C(=N\O[C@@H](COc2ccc(-c3cn(CCCN)[n+](CC4(F)CNC4)c3)cc2)C(=O)O)c2csc(N)n2)C(=O)N1OS(=O)(=O)[O-] [Example 119] = 6.25

Given item CC1(C)[C@H](NC(=O)/C(=N\O[C@@H](COc2ccc(-c3cnc(NCCN)[n+](CC4CNC4)c3)cc2)C(=O)O)c2csc(N)n2)C(=O)N1OS(=O)(=O)[O-] [Example 99] , the value recorded as its PA_CL5701 MITC95 is 3.125

Record C[n+]1cc(-c2ccc(OC[C@H](O/N=C(\C(=O)N[C@@H]3C(=O)N(OS(=O)(=O)O)C3(C)C)c3csc(N)n3)C(=O)O)cc2)cn1CC(O)CN (some centres unmarked) [Example 42] , field PA_CL5701 MITC95: 3.125

Consider C[n+]1cc(-c2ccc(OC[C@](C)(O/N=C(\C(=O)N[C@@H]3C(=O)N(OS(=O)(=O)O)C3(C)C)c3csc(N)n3)C(=O)O)cc2)ccc1NCCN [Example 87] . Its measured PA_CL5701 MITC95 is 3.125

// PA_CL5701 MITC95 lookup, compound = C[n+]1cc(-c2ccc(OC[C@H](O/N=C(\C(=O)N[C@@H]3C(=O)N(OS(=O)(=O)[O-])C3(C)C)c3nc(N)sc3Cl)C(=O)O)cc2)ccc1NCCN [Example 67] , result: 6.25

Cn1c(-c2ccc(OC[C@H](O/N=C(\C(=O)N[C@@H]3C(=O)N(OS(=O)(=O)O)C3(C)C)c3csc(N)n3)C(=O)O)cc2)cn(CCCN)c1=NCCN (stereo in doubt) [Example 57] yielded PA_CL5701 MITC95 of 3.125

Memo: CC1(C)[C@H](NC(=O)/C(=N\O[C@@H](COc2ccc(-n3ccn(CCCN)c3=N)nc2)C(=O)O)c2csc(N)n2)C(=O)N1OS(=O)(=O)O [Example 118] , reported PA_CL5701 MITC95: 6.25

// PA_CL5701 MITC95 value for Cn1c(-c2ccc(OC[C@H](O/N=C(\C(=O)N[C@@H]3C(=O)N(OS(=O)(=O)O)C3(C)C)c3csc(N)n3)C(=O)O)cc2F)cn(CCCN)c1=N [Example 96] : 6.25

Looking up C[n+]1cc(-c2ccc(OC[C@](C)(O/N=C(\C(=O)N[C@@H]3C(=O)N(OS(=O)(=O)O)C3(C)C)c3csc(N)n3)C(=O)O)cc2)cn1CCCN [Example 39] , I found its PA_CL5701 MITC95 recorded as 3.125

# PA_CL5701 MITC95 of C[n+]1c(N)c(-c2ccc(OC[C@H](O/N=C(\C(=O)N[C@@H]3C(=O)N(OS(=O)(=O)[O-])C3(C)C)c3csc(N)n3)C(=O)O)cc2F)cn1CCCN [Example 47] = 3.125

Record CC1(C)[C@H](NC(=O)/C(=N\O[C@@H](COc2ccc(-n3cc[n+](CC4CNC4)c3)nc2)C(=O)O)c2csc(N)n2)C(=O)N1OS(=O)(=O)[O-] [Example 109] . Reported PA_CL5701 MITC95: 12.5
